- System: Mus musculus
- test.details: Antiwrithing activity in po dosed mouse assessed as prevention of acetylcholine-induced abdominal constriction response
- Assay type: functional
- test.settings: Abdomen
observed.property: ED50

Inquiry: Field: ED50 (Mus musculus). Entry: COC(=O)[C@H]1C[C@H]2CCC([C@H]1c1ccccc1)N2C (mixture of isomers)
Reply text: 16 mg/kg

Inquiry: Field: ED50 (Mus musculus). Entry: COC(=O)[C@@H]1C[C@H]2CC[C@H]([C@H]1c1ccc[nH]1)N2C (racemic)
Reply text: 42 mg/kg

Inquiry: Field: ED50 (Mus musculus). Entry: COC(=O)[C@H]1C[C@H]2CC[C@@H](N2)[C@H]1c1ccccc1 (racemic)
Reply text: 8.4 mg/kg

Inquiry: Field: ED50 (Mus musculus). Entry: COC(=O)[C@H]1C[C@H]2CC[C@H]([C@H]1c1ccc[nH]1)N2C (racemic)
Reply text: 34 mg/kg

Inquiry: Field: ED50 (Mus musculus). Entry: COC(=O)[C@@H]1C[C@H]2CC[C@H]([C@H]1c1cccs1)N2C (racemic)
Reply text: 35 mg/kg

Inquiry: Field: ED50 (Mus musculus). Entry: COC(=O)[C@@H]1C[C@H]2CC[C@H]([C@H]1c1ccccc1)N2Cc1ccccc1 (racemic)
Reply text: 21 mg/kg
